Test: in vitro
Conditions: human, microsomes, pH 7.4
Reported microsomal CLint values for the following molecules.
Please give a number only; it is taken to be in µL/min/mg.

Example cases with answers are listed next.
* CCN(CC)C(=O)[C@@H]1C=C2c3cccc4[nH]cc(c34)C[C@H]2N(C)C1 [LSD, Lysergic acid diethylamide, reference compound] | 16.3
* [2H]C([2H])([2H])N1C[C@H](C(=O)N(C([2H])([2H])C([2H])([2H])[2H])C([2H])([2H])C([2H])([2H])[2H])C=C2c3cccc4[nH]cc(c34)C[C@H]21 [Compound 50] | 14.3
* [2H]c1[nH]c2c([2H])c([2H])c([2H])c3c2c1C[C@@H]1C3=C[C@@H](C(=O)N(C([2H])([2H])C([2H])([2H])[2H])C([2H])([2H])C([2H])([2H])[2H])CN1C [Compound 67] | 11.5

GET /value?item= COc1ccc2c(c1)[C@]13CCCC[C@@H]1[C@H](C2)N(C)CC3 [dextromethorphan, reference compound] &field=microsomal CLint returns 46.8

GET /value?item= [2H]c1[nH]c2cccc3c2c1C[C@@H]1C3=C[C@@H](C(=O)N(C([2H])([2H])C([2H])([2H])[2H])C([2H])([2H])C([2H])([2H])[2H])CN1C [Compound 55] &field=microsomal CLint returns 16.6
